Below: a set of entries, each annotated with reported inhibition.
target: Phosphatidylinositol 4,5-bisphosphate 3-kinase catalytic subunit gamma isoform (Homo sapiens, UniProt P48736); experiment: Antagonist activity at PI3Kgamma (unknown origin) assessed as inhibition rate at 20 nM using PIP2 as substrate in presence of ATP incubated for 30 to 60 mins by ADP-glo based luminescence assay relative to control; settings: time 30-60 min
Sequence (P48736 whole entry, looked up, canonical isoform): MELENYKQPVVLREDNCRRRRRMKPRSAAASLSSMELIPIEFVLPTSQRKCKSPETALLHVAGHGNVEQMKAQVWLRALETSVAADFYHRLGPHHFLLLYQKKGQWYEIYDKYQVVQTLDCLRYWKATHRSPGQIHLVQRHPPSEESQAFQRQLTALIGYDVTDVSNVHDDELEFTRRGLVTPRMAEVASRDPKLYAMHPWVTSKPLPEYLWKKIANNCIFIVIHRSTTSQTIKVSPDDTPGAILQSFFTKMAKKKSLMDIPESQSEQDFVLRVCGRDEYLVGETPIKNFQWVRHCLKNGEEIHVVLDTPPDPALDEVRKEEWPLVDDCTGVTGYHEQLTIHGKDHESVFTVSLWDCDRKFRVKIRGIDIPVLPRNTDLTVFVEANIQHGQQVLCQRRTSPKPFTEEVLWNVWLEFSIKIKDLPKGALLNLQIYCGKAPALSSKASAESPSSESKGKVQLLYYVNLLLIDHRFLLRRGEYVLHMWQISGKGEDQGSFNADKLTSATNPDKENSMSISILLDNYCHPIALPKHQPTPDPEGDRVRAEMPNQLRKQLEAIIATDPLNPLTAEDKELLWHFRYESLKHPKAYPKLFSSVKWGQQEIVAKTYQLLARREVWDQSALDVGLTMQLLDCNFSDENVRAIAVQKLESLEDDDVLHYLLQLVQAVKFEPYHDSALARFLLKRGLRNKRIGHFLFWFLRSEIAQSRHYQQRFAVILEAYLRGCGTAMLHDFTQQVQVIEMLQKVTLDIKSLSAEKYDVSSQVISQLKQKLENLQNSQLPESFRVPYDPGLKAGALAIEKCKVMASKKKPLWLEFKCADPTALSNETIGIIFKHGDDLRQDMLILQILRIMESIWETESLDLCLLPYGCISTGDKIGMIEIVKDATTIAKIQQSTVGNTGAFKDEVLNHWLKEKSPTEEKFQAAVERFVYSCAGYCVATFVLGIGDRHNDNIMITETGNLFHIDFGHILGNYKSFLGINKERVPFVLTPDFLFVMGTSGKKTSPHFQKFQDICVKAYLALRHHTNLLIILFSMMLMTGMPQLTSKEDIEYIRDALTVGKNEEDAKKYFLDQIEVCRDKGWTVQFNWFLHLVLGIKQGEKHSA

molecule	inhibition
CCCC#Cc1cccc2cc(C(C)NC(=O)c3c(N)nn4cccnc34)n(-c3ccccc3)c(=O)c12 (stereo not given)	24%
CC(NC(=O)c1cnn2cccnc12)c1cc2cccc(Cl)c2c(=O)n1-c1ccccc1 (stereo not given)	36%
CC(Nc1ncnc2c1ncn2C)c1cc2cccc(Cl)c2c(=O)n1-c1ccccc1 (stereo not given)	35%
COCC#Cc1cccc2cc(C(C)NC(=O)c3c(N)nn4cccnc34)n(-c3ccccc3)c(=O)c12 (stereo not given)	35%
COc1ccc(C#Cc2cccc3cc(C(C)NC(=O)c4cnn5cccnc45)n(-c4ccccc4)c(=O)c23)cc1 (stereo not given)	25%

====

target: Phosphatidylinositol 4,5-bisphosphate 3-kinase catalytic subunit gamma isoform (Homo sapiens, UniProt P48736); test: Antagonist activity at PI3Kgamma (unknown origin) assessed as inhibition rate at 20 nM using PIP2 as substrate in presence of ATP incubated for 30 to 60 mins by ADP-glo based luminescence assay relative to control; conditions: time 30-60 min
Below: a set of entries, each annotated with reported inhibition.

compound	inhibition (%)
CCCCC#Cc1cccc2cc(C(C)Nc3ncnc4[nH]cnc34)n(-c3ccccc3)c(=O)c12 (centres undefined)	33
CC(NC(=O)c1cccc2c1OCCO2)c1cc2cccc(Cl)c2c(=O)n1-c1ccccc1 (centres undefined)	9
CC(NC(=O)c1cnn2cccnc12)c1cc2cccc(C#Cc3ccc(N(C)C)cc3)c2c(=O)n1-c1ccccc1 (centres undefined)	22
COc1ccc(C#Cc2cccc3cc(C(C)NC(=O)c4c(N)nn5cccnc45)n(-c4ccccc4)c(=O)c23)cc1 (centres undefined)	31

====

target: Phosphatidylinositol 4,5-bisphosphate 3-kinase catalytic subunit gamma isoform (Homo sapiens, UniProt P48736); experiment: Antagonist activity at PI3Kgamma (unknown origin) using PIP2 as substrate in presence of ATP incubated for 30 to 60 mins by ADP-glo based luminescence assay
Sequence (P48736 whole entry, canonical isoform): as the sequence (P48736 whole entry, looked up, canonical isoform) above
pIC50: −log10 of the molar value.

molecule	pIC50
COc1ccc(C#Cc2cccc3cc(C(C)Nc4ncnc5[nH]cnc45)n(-c4ccccc4)c(=O)c23)cc1 (stereo unspecified)	6.68

====

molecular target: Phosphatidylinositol 4,5-bisphosphate 3-kinase catalytic subunit delta isoform (Homo sapiens, UniProt O00329); assay: Antagonist activity at PI3Kdelta (unknown origin) using PIP2 as substrate in presence of ATP incubated for 30 to 60 mins by ADP-glo based luminescence assay

compound	valueUnits	IC50
COc1ccc(C#Cc2cccc3cc(C(C)Nc4ncnc5[nH]cnc45)n(-c4ccccc4)c(=O)c23)cc1 (stereo unspecified)	nM	13.1

====

biological target: Phosphatidylinositol 4,5-bisphosphate 3-kinase catalytic subunit beta isoform (Homo sapiens); assay: Antagonist activity at PI3Kbeta (unknown origin) using PIP2 as substrate in presence of ATP incubated for 30 to 60 mins by ADP-glo based luminescence assay
Sequence (P42338 whole entry, canonical isoform): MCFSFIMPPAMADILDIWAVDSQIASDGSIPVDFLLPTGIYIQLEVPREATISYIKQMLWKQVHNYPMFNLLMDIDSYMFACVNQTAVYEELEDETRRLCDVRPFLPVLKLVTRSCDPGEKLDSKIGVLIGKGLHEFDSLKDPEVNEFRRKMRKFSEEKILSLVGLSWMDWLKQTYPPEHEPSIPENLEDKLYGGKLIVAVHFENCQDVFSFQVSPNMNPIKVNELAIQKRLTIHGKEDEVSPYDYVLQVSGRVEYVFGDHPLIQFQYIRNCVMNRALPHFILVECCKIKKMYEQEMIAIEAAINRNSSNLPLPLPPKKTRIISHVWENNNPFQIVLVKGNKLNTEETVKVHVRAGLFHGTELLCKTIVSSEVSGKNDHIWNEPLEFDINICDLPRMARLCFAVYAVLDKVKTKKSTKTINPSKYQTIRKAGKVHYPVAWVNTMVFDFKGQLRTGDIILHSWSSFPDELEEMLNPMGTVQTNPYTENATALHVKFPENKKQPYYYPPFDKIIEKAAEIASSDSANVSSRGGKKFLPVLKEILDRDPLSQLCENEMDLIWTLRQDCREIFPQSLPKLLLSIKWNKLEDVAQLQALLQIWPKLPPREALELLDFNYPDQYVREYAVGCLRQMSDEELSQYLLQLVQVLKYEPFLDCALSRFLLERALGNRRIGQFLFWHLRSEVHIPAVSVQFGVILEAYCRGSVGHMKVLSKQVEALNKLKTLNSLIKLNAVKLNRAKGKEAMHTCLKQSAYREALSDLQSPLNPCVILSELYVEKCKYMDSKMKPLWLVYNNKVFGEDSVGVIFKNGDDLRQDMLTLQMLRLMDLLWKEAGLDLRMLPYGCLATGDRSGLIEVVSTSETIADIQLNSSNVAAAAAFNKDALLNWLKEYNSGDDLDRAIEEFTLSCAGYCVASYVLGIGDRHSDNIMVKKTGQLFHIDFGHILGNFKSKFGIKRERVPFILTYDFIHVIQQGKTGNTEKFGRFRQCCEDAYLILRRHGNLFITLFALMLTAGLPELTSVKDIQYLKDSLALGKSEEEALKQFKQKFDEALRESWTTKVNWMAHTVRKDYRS
pIC50: −log10 of the molar value.
endpoint: pIC50

molecule	endpoint	numericValue
COc1ccc(C#Cc2cccc3cc(C(C)Nc4ncnc5[nH]cnc45)n(-c4ccccc4)c(=O)c23)cc1 (stereo unspecified)	pIC50	6.96

====

experiment: Cytotoxicity against mouse L929 cells assessed as reduction in cell viability incubated for 24 hrs by CCK-8 assay; format: toxicity, cell-based
endpoint: IC50 at 24 h

compound	result
C[C@H](Nc1ncnc2[nH]cnc12)c1cc2cccc(Cl)c2c(=O)n1-c1ccccc1	> 100 µM
COc1ccc(C#Cc2cccc3cc(C(C)Nc4ncnc5[nH]cnc45)n(-c4ccccc4)c(=O)c23)cc1 (configuration not stated)	> 100 µM

====

target: Phosphatidylinositol 4,5-bisphosphate 3-kinase catalytic subunit delta isoform (Homo sapiens) (UniProt O00329); experiment: Antagonist activity at PI3Kdelta (unknown origin) assessed as inhibition rate at 20 nM using PIP2 as substrate in presence of ATP incubated for 30 to 60 mins by ADP-glo based luminescence assay relative to control; details: time 30-60 min

molecule	valueUnits	inhibition
CC(NC(=O)c1cnn2cccnc12)c1cc2cccc(C#Cc3ccc(N(C)C)cc3)c2c(=O)n1-c1ccccc1 (centres undefined)	%	28
CC(NC(=O)c1c(N)nn2cccnc12)c1cc2cccc(C#CCN)c2c(=O)n1-c1ccccc1 (centres undefined)	%	25
CC(NC(=O)c1cnn2cccnc12)c1cc2cccc(Cl)c2c(=O)n1-c1ccccc1 (centres undefined)	%	13
CC(NC(=O)c1cnn2cccnc12)c1cc2cccc(C#Cc3ccccc3)c2c(=O)n1-c1ccccc1 (centres undefined)	%	22

====

system: 4T1; experiment: Cytotoxicity against mouse 4T1 cells assessed as reduction in cell viability incubated for 24 hrs by CCK-8 assay; assay type: functional, cell-based; conditions: 4T1, 24 h

compound	IC50 [µM]
COc1ccc(C#Cc2cccc3cc(C(C)Nc4ncnc5[nH]cnc45)n(-c4ccccc4)c(=O)c23)cc1 (configuration not stated)	9.76
C[C@H](Nc1ncnc2nc[nH]c12)c1cc2cccc(Cl)c2c(=O)n1-c1ccccc1	22.9

====

Below: a set of entries, each annotated with reported inhibition.
target: Phosphatidylinositol 4,5-bisphosphate 3-kinase catalytic subunit gamma isoform (Homo sapiens); assay: Antagonist activity at PI3Kgamma (unknown origin) assessed as inhibition rate at 20 nM using PIP2 as substrate in presence of ATP incubated for 30 to 60 mins by ADP-glo based luminescence assay relative to control; details: filed as antagonist, time 30-60 min

molecule	inhibition
CC(Nc1ncnc2[nH]cnc12)c1cc2cccc(C#Cc3ccc(N(C)C)cc3)c2c(=O)n1-c1ccccc1 (stereo unspecified)	46%
COc1ccc(C#Cc2cccc3cc(C(C)Nc4ncnc5[nH]cnc45)n(-c4ccccc4)c(=O)c23)cc1 (stereo unspecified)	53%
COCC#Cc1cccc2cc(C(C)Nc3ncnc4[nH]cnc34)n(-c3ccccc3)c(=O)c12 (stereo unspecified)	41%
CC(Nc1ncnc2[nH]cnc12)c1cc2cccc(C#Cc3ccc(C(F)(F)F)cc3)c2c(=O)n1-c1ccccc1 (stereo unspecified)	44%
CC(Nc1ncnc2[nH]cnc12)c1cc2cccc(C#Cc3ccccc3)c2c(=O)n1-c1ccccc1 (stereo unspecified)	51%
CC(Nc1ncnc2[nH]cnc12)c1cc2cccc(C#CC3CC3)c2c(=O)n1-c1ccccc1 (stereo unspecified)	43%

====

test system: T47D; assay: Cytotoxicity against human T47D cells assessed as reduction in cell viability incubated for 24 hrs by CCK-8 assay; type: functional, cell-based
pIC50: −log10 of the molar value.
Below: a set of entries, each annotated with reported pIC50.
endpoint: pIC50

molecule	result
COc1ccc(C#Cc2cccc3cc(C(C)Nc4ncnc5[nH]cnc45)n(-c4ccccc4)c(=O)c23)cc1 (configuration not stated)	< 4.00
C[C@H](Nc1ncnc2nc[nH]c12)c1cc2cccc(Cl)c2c(=O)n1-c1ccccc1	< 4.00

====

Target: Phosphatidylinositol 4,5-bisphosphate 3-kinase catalytic subunit delta isoform (Homo sapiens) (UniProt O00329)
Sequence (whole entry): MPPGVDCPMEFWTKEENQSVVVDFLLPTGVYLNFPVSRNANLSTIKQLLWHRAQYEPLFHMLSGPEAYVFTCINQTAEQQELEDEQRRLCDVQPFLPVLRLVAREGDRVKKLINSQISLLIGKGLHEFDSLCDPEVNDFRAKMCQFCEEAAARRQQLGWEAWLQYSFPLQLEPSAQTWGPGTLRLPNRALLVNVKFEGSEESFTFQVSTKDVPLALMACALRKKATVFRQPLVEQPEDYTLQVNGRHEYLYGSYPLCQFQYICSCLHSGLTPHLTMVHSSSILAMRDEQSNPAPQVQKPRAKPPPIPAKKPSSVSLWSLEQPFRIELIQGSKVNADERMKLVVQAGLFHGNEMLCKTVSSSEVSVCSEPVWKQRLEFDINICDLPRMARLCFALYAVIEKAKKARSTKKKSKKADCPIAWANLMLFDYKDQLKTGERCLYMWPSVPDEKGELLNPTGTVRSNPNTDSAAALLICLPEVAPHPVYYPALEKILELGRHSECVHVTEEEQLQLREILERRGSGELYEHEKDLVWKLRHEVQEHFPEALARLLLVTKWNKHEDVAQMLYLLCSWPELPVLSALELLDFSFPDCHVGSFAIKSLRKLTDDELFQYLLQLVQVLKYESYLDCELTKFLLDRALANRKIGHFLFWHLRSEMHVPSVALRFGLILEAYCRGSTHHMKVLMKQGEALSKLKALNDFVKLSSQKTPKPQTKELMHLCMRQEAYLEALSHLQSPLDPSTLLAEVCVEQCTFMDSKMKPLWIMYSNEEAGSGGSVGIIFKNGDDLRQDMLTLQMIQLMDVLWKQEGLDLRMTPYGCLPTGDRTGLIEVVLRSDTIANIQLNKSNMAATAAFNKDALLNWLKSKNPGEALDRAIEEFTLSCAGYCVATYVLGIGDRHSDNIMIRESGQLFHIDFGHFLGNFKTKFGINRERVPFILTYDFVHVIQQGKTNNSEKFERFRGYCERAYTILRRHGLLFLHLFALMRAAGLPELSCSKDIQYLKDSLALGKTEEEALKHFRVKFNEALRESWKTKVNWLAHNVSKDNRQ
Assay: Antagonist activity at PI3Kdelta (unknown origin) assessed as inhibition rate at 20 nM using PIP2 as substrate in presence of ATP incubated for 30 to 60 mins by ADP-glo based luminescence assay relative to control
Details: time 30-60 min
Binary call on inhibition: Satisfied from 20% upward, Not satisfied beneath that.

compound	groupLabel
CC(Nc1ncnc2[nH]cnc12)c1cc2cccc(C#Cc3ccccc3)c2c(=O)n1-c1ccccc1 (stereo not given)	Satisfied
COc1ccc(C#Cc2cccc3cc(C(C)NC(=O)c4c(N)nn5cccnc45)n(-c4ccccc4)c(=O)c23)cc1 (stereo not given)	Not satisfied
CC(NC(=O)c1c(N)nn2cccnc12)c1cc2cccc(C#Cc3ccccc3)c2c(=O)n1-c1ccccc1 (stereo not given)	Satisfied
CC(NC(=O)c1cccc2c1OCCO2)c1cc2cccc(Cl)c2c(=O)n1-c1ccccc1 (stereo not given)	Satisfied
CCCC#Cc1cccc2cc(C(C)NC(=O)c3c(N)nn4cccnc34)n(-c3ccccc3)c(=O)c12 (stereo not given)	Satisfied
